system: Meyerozyma guilliermondii; assay: Tested for minimum inhibitory concentration against Candida guilliermondii 80 (C.g) at pH of 6.5.; type: functional
Attribute: MIC
measurement.label: MIC

INSERT INTO results (test_smiles, reported_result) VALUES
  ('CC[C@H](C)[C@H]1C(=O)NCC(=O)N(C)[C@@H](C(C)C)C(=O)N[C@@H](Cc2ccc(OC)cc2)C(=O)N[C@@H](C)C(=O)N[C@H](C)C(=O)N2CCCC[C@H]2C(=O)N(C)[C@@H](C(C)C)C(=O)N[C@@H](C(C)C)C(=O)N(C)[C@@H](CC(=O)O)C(=O)N(C)[C@@H]([C@@H](C)CC)C(=O)N1C', '> 100 µg/mL'),
  ('CC[C@@H](C)[C@H]1C(=O)NCC(=O)N(C)[C@@H](C(C)C)C(=O)N[C@@H](Cc2ccc(OC)cc2)C(=O)O[C@H](C)C(=O)N2CCCC[C@H]2C(=O)N(C)[C@@H](C(C)C)C(=O)N[C@@H](C(C)C)C(=O)N(C)[C@@H](CC(=O)NC[Si](C)(C)C)C(=O)N(C)[C@@H]([C@@H](C)CC)C(=O)N1C', '> 100 µg/mL'),
  ('CC[C@@H](C)[C@H]1C(=O)NCC(=O)N(C)[C@@H](C(C)C)C(=O)N[C@@H](Cc2ccc(OC)cc2)C(=O)O[C@@H](C)C(=O)N2CCCC[C@H]2C(=O)N(C)[C@@H](C(C)C)C(=O)N[C@@H](C(C)C)C(=O)N(C)[C@@H](CC(=O)O)C(=O)N(C)[C@@H]([C@@H](C)CC)C(=O)N1C', '100 µg/mL'),
  ('CC[C@@H](C)[C@H]1C(=O)NCC(=O)N(C)[C@@H](C(C)C)C(=O)N[C@@H](Cc2ccc(OC)cc2)C(=O)O[C@H](C)C(=O)N2CCCC[C@H]2C(=O)N(C)[C@@H](C(C)C)C(=O)N[C@@H](C(C)C)C(=O)N(C)[C@@H](CCOC(=O)CCC(=O)O)C(=O)N(C)[C@@H]([C@@H](C)CC)C(=O)N1C', '> 100 µg/mL'),
  ('CC[C@@H](C)[C@H]1C(=O)NCC(=O)N(C)[C@@H](C(C)C)C(=O)N[C@@H](Cc2ccc(OC)cc2)C(=O)O[C@H](C)C(=O)N2CCCC[C@H]2C(=O)N(C)[C@@H](C(C)C)C(=O)N[C@@H](C(C)C)C(=O)N(C)[C@@H](CCOC(=O)c2ccccc2C(=O)O)C(=O)N(C)[C@@H]([C@@H](C)CC)C(=O)N1C', '> 100 µg/mL'),
  ('CC[C@@H](C)[C@H]1C(=O)NCC(=O)N(C)[C@@H](C(C)C)C(=O)N[C@@H](Cc2ccc(OCc3ccc(Br)cc3)cc2)C(=O)O[C@H](C)C(=O)N2CCCC[C@H]2C(=O)N(C)[C@@H](C(C)C)C(=O)N[C@@H](C(C)C)C(=O)N(C)[C@@H](CC(=O)O)C(=O)N(C)[C@@H]([C@@H](C)CC)C(=O)N1C', '> 100 µg/mL');
